run_description: Plasma levels in rats (oral bio-availability)
Format: in vivo
experimental_parameters: rat, plasma, oral, 20 mg/kg, read-out: maximum plasma concentration (CMAX)
Protocol: In addition to the potency shown in vitro in the models given by way of example above, an advantageous and important characteristic of the compounds of the present invention is their optimal oral bio-availability. Thus, for example, Compound 1, administered to rats at a dose of 20 mg/kg, provided a maximum plasma concentration (CMAX) of about 20 mcg/ml 1 hour after administration.
reported_endpoint: Cmax

[[record]]
compound = "O=C(NC(Cc1ccc(OCc2ccc3ccccc3n2)cc1)C(=O)O)c1ccc2ccccc2n1 (racemic)"
reported_endpoint = "Cmax"
recorded_value = "~20000 ng/mL"


* * *

Counter-ions that a name gives are not always drawn.
Listed below: melting point values for each entry.
reported_endpoint: melting point (°C)

[[record]]
compound = "O=C(NC(Cc1ccc(OCc2ccc3ccc(Cl)cc3n2)cc1)C(=O)O)c1ccc(-c2ccccc2)cc1 (stereo not shown) [Compound 9]"
result_qualifier = "="
recorded_value = 193

[[record]]
compound = "O=C(NC(Cc1ccc(OCc2ccc3ccccc3n2)cc1)C(=O)O)c1ccccc1 (stereo not shown) (as salt: hydrochloride) [Compound 2]"
result_qualifier = "="
recorded_value = 140

[[record]]
compound = "O=C(NC(Cc1ccc(OCc2ccc3ccccc3n2)cc1)C(=O)O)c1cc2ccccc2cn1 (stereo not shown) [Compound 21]"
result_qualifier = "="
recorded_value = 204

[[record]]
compound = "O=C(NC(Cc1ccc(OCc2ccc3ccccc3n2)cc1)C(=O)O)c1ccc2nc[nH]c2c1 (stereo not shown) [Compound 29]"
result_qualifier = ">"
recorded_value = 250

[[record]]
compound = "O=C(NC(Cc1ccc(OCc2ccc3ccccc3n2)cc1)C(=O)O)c1ccccc1-c1ccccc1 (stereo not shown) [Compound 7]"
result_qualifier = "="
recorded_value = 155

[[record]]
compound = "Cn1cc(C(=O)NC(Cc2ccc(OCc3ccc4ccccc4n3)cc2)C(=O)O)c2ccccc21 (stereo not shown) [Compound 26]"
result_qualifier = "="
recorded_value = 180

[[record]]
compound = "O=C(NC(Cc1ccc(OCc2ccc3ccccc3n2)cc1)C(=O)O)c1cccc(Cl)c1 (stereo not shown) [Compound 4]"
result_qualifier = "="
recorded_value = 187

[[record]]
compound = "O=C(NC(Cc1ccc(OCc2ccc3ccccc3n2)cc1)C(=O)O)c1ccc(C(F)(F)F)cc1 (stereo not shown) [Compound 6]"
result_qualifier = "="
recorded_value = 211

[[record]]
compound = "O=C(NC(Cc1ccc(OCc2ccc3ccccc3n2)cc1)C(=O)O)c1cnc2ccccc2n1 (stereo not shown) [Compound 27]"
result_qualifier = ">"
recorded_value = 240

[[record]]
compound = "O=C(NC(Cc1ccc(OCc2ccc3ccccc3n2)cc1)C(=O)O)c1nccc2ccccc12 (stereo not shown) [Compound 20]"
result_qualifier = "="
recorded_value = 157


* * *

run_description: Plasma levels in rats (oral bio-availability)
Type: in vivo
experimental_parameters: rat, plasma, oral, 20 mg/kg, 8 h, read-out: plasma concentration 8 h after administration
reported_endpoint: concentration at 8 h

[[record]]
compound = "O=C(NC(Cc1ccc(OCc2ccc3ccccc3n2)cc1)C(=O)O)c1ccc2ccccc2n1 (racemic)"
reported_endpoint = "concentration at 8 h"
recorded_value = "> 2000 ng/mL"


* * *

reported_endpoint: melting point (°C)

[[record]]
compound = "Cn1c(C(=O)NC(Cc2ccc(OCc3ccc4ccccc4n3)cc2)C(=O)O)cc2ccccc21 (stereo not drawn) [Compound 25]"
unit_descriptor = "°C"
recorded_value = 198

[[record]]
compound = "O=C(NC(Cc1ccc(OCc2ccc3ccccc3n2)cc1)C(=O)O)c1ccc(Cl)cc1 (stereo not drawn) [Compound 3]"
unit_descriptor = "°C"
recorded_value = 197

